Target: T1, Recombinant human Fc-tagged extracellular domain of LILRB1 (human, UniProt Q8NHL6 24-461)
T1 construct: extracellular domain; Bought from R&D Systems; also called LILRB1-Fc; not shown: Fc tag
T1 sequence (Q8NHL6 24-461): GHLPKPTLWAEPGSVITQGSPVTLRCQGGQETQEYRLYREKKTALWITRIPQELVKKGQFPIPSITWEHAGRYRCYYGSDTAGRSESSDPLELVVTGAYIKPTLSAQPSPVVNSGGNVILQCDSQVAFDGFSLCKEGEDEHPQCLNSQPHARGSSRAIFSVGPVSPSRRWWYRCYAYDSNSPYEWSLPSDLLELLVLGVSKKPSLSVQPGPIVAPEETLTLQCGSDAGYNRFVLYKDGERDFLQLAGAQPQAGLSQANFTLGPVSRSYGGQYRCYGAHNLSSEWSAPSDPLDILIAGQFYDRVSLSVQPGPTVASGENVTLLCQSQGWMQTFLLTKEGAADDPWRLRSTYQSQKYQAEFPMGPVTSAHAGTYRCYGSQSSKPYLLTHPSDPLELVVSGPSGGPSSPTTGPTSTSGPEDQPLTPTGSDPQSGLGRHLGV
Assay: SPR, Biacore X100; LILRB1-Fc amine-coupled to CM5 chip, antibody injected at 3.7-300 nM
measuredMetric: -log(Kd)

4C2 (antibody, V domains shown, Entries are printed with leader peptide and part of the mouse constant region; also called LILRB1 antibody 4C2) VH: QVQLQQPGAALVKPGASVKLSCKASGYTFTSYWMHWVKQRPGQGLEWIGMIHPNSGSTNYNEKFRSEATLTVDKSSSTVYMQLSSLTSEDSAVYYCARSGDAYYDGLDYWGQGTSVTVSS VL: DIQMNQSPSSLSASLGDTITITCHARQNINVWLSWYQQKPGNIPKLLIYKASNLHTGVSSRFSGSGSGTGFTLTISSLQPEDIATYYCQQGQSYPWTFGGGTKLEIKR : 12.7

// data source = patent US20240150462A1
